# assay_system: UniProt P30543
# Sequence (P30543 whole entry): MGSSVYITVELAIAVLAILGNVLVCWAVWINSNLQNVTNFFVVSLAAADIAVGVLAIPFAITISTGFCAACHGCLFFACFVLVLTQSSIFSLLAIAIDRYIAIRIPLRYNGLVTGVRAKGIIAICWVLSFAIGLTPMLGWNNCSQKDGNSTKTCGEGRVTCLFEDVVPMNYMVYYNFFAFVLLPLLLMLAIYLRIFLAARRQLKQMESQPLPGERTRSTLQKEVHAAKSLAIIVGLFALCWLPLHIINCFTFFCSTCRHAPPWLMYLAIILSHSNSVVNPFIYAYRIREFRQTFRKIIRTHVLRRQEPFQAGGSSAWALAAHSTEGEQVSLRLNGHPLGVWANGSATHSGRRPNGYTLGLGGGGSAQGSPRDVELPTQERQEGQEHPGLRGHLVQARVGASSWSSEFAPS
pKi: −log10 of the molar value.
compounds and their reported pKi
measured_metric: pKi

>>> readout_number("Cc1cc(C)n(-c2cc(NC(=O)CC3CCN(C)CC3)nc(-c3ccc(C)o3)n2)n1")
6.99
>>> readout_number("Cc1cc(C)n(-c2cc(NC(=O)CN3CCCN(C)CC3)nc(-c3ccc(C)o3)n2)n1")
7.33
>>> readout_number("Cc1cc(C)n(-c2cc(NC(=O)CCN(C)C)nc(-c3ccc(C)o3)n2)n1")
7.37
>>> readout_number("Cc1cc(C)n(-c2cc(NC(=O)CCN3CC[C@H](N(C)C)C3)nc(-c3ccc(C)o3)n2)n1")
7.39
>>> readout_number("Cc1cc(C)n(-c2cc(NC(=O)CN3CCC[C@H](CN(C)C)C3)nc(-c3ccc(C)o3)n2)n1")
7.06
>>> readout_number("Cc1cc(C)n(-c2cc(NC(=O)CN3CC[C@H](CN(C)C)C3)nc(-c3ccc(C)o3)n2)n1")
7.47
>>> readout_number("Cc1cc(C)n(-c2cc(NC(=O)CN3CC[C@@H](CN(C)C)C3)nc(-c3ccc(C)o3)n2)n1")
7.56
>>> readout_number("Cc1cc(C)n(-c2cc(NC(=O)CN3CCCOCC3)nc(-c3ccc(C)o3)n2)n1")
6.64
>>> readout_number("Cc1cc(C)n(-c2cc(NC(=O)CN3CCC[C@@H](CN(C)C)C3)nc(-c3ccc(C)o3)n2)n1")
7.85
